# SYSTEM TESTED: T1, MfArtemin-MMH (cynomolgous monkey (Macaca fascicularis))
# T1 construct: also called mfARTN.mmh; mfARTN (A108-G22).mmh
# T1 chain: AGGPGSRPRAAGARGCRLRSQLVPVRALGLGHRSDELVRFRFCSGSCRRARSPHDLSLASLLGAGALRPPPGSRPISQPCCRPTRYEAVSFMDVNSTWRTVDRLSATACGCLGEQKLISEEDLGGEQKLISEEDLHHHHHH
# TEST DETAILS: BLI (Octet HTX), mAb captured on AHC tips, artemin at 15 nM, 25 C
Consider the following binders; for each one, report its Artemin Binding Response (nm).
Answers are plain numbers, in nm.

Query block: Which value of Artemin Binding Response (nm) has been reported for H4H33335P (antibody, human IgG4 S228P, kappa, V domains shown, Fully human antibody; also called Artemin mAb; anti-ARTN antibody) VH: EVQLVESGGGLVQPGGSLRLSCAASGFTFSSYDMHWVRQATGKGLEWVSTIDTAGDTYYPGSVKGRFTISRENAKNSLYLQMNSLRAGDTAVYYCARDGELELQGYFDLWGRGTLVTVSS VL: DIQMTQSPSSLSASVGDRVTITCRASQIISIYLNWYQQKPGKAPKLLIYAASSLQSGVPSRFSGSGSGTDFTLTISSLQPEDFATYYCQQSYTTPLTFGGGTKVEIKR in the records?
Result block: 0.04

Query block: Now try H4H33336P (antibody, human IgG4 S228P, kappa, V domains shown, Fully human antibody; also called Artemin mAb; anti-ARTN antibody) VH: QVQLVESGGGVVQPGRSLRLSCVASGFILSHYGMHWVRQAPGKGLEWVAVIWFDGTNKYYADSVKGRFTVSRDNSKNTLYMQMNSLRAEDTAVYYCARDPPPARRGNYNGMDVWGQGTTVTVSS VL: DIQMTQSPSSLSASVGDRVTITCRASQDIRNDLGWYQQKPGKAPKRLIFGASSLQSGVPLRFSGSGSGTEFTLTINNLQPEDFATFYCLQDNSYPWTFGQGTKVEIKR .
Result block: 0.03

Query block: For H4H33331P (antibody, human IgG4 S228P, kappa, V domains shown, Fully human antibody (human variable and constant domains) from a VELOCIMMUNE mouse; also called Artemin mAb; anti-ARTN antibody) VH: EVQLVESGGDLVQPGGSLKLSCAASGFTFSGSAMHWVRQASGKGLEWVGRIRNKVHRYATEYGASVKGRFTISRDDSKNTAYLQMNSLKIEDTAVYYCVVVVPGSIEAFDIWGQGTMVTVSS VL: DIQMTQSPSSLSASVGDRVTITCRASQSISTYLNWYQQKPGKAPNLLIYAASTLESGVPSRFSGSGSGTDFTLTISSLQPEDFEIYYCQQSYNIPWTFGQGTKVEIKR then?
Result block: 0.03

New cases:
Query block: Looking for the measured Artemin Binding Response (nm) of H4H33349P (antibody, human IgG4 S228P, kappa, V domains shown, Fully human antibody; also called Artemin mAb; anti-ARTN antibody) VH: QVQLVESGGGVVQPGRSLRLSCEASGFTFSDYDLHWVRQAPGKGLEWVAFISNDGSNEYYPKSVKGRFSISRDNSKNTLYLQMNSLRAEDTAVYHCTKERDYYYDSSGSLDYWGQGTLVTVSS VL: DIQMTQSPSSLSASVGDRVTITCRASQTINNYLNWYQQKPGKAPKLLIYTTSGLQSGVPSRFSGRGSGTDFTLAISSLQPEDFATYYCQQSYHSPFTFGPGTKVDIKR , can you help?
Result block: 0.09

// provenance: patent US20240352111A1
